Field: Emax. Provide a value for each of the compounds that follow.
- TESTED_ON: M4 muscarinic receptor (Homo sapiens, UniProt P08173)
- Construct: expressed in transfected cells; host or cells: CHO cells (M4-CHO, under puromycin, zeocin and blasticidin selection)
- Sequence (P08173 whole entry): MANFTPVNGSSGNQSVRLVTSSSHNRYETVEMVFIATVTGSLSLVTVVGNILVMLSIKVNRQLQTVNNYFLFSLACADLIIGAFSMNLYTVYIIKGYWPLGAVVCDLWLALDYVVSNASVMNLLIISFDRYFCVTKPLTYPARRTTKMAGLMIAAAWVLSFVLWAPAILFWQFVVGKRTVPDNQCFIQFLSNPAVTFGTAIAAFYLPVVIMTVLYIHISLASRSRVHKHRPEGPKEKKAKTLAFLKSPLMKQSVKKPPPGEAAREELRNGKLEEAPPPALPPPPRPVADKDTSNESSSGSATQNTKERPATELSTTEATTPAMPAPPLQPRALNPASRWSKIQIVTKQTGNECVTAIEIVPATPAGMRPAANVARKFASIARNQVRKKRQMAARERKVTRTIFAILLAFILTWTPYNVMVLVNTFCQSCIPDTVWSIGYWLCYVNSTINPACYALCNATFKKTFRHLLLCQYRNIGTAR
- TEST_SUMMARY: Functional mobilization of intracellular calcium (FLIPR, Fluo-3), M4-CHO cells
- Type: cell-based
- TEST_CONDITIONS: compound nos. 1-454; 100% efficacy is the maximum response obtained with the Carbachol control; read-out: M4 Efficacy
- Procedure: CHO cells expressing muscarinic receptors (M1 to M5) are grown as monolayers in tissue culture flasks at 37° C. in a humidified atmosphere containing 5% CO2 and passaged every 3-5 days. […] The potency, efficacy and selectivity of the muscarinic compounds were evaluated by screening the compound activity across the whole family (M1 to M5 cells). […]

The cases that follow already have their Emax on record.
>  <COMPOUND>
CCOC(=O)N1C2CCC1CC(N1CCC3(CC1)COc1ccc(Cl)cc13)C2 (centres unmarked) [compound 99]

>  <TESTED_ON>
M4 muscarinic receptor (Homo sapiens, UniProt P08173)

>  <Emax>
< 55%

$$$$
>  <COMPOUND>
CCOC(=O)N1CCC(N2CCC3(CC2)CN(C(=O)O[C@H]2CCOC2)c2ccc(F)cc23)CC1 [compound 428]

>  <TESTED_ON>
M4 muscarinic receptor (Homo sapiens, UniProt P08173)

>  <Emax>
< 55%

$$$$
>  <COMPOUND>
CCOC(=O)N1CCC(N2CCC3(CC2)CN(C(C)=O)c2ccc(-c4ccc(C(C)=O)cc4)cc23)CC1 [compound 221]

>  <TESTED_ON>
M4 muscarinic receptor (Homo sapiens, UniProt P08173)

>  <Emax>
< 55%

$$$$
>  <COMPOUND>
CC(=O)N1CC2(CCN(C3CCN(c4nccs4)CC3)CC2)c2cc(F)ccc21 [compound 432]

>  <TESTED_ON>
M4 muscarinic receptor (Homo sapiens, UniProt P08173)

>  <Emax>
55 to 70%

$$$$
>  <COMPOUND>
CCCOC(=O)N1C2CCC1CC(N1CCC3(CC1)CN(C(=O)O[C@@H]1CCOC1)c1ccc(F)cc13)C2 (some centres unmarked) [compound 115]

>  <TESTED_ON>
M4 muscarinic receptor (Homo sapiens, UniProt P08173)

>  <Emax>
< 55%

$$$$
>  <COMPOUND>
COCCOC(=O)N1C2CCC1CC(N1CCC3(CC1)CN(C(=O)C1CC1)c1ccc(F)cc13)C2 (centres unmarked) [compound 311]

>  <TESTED_ON>
M4 muscarinic receptor (Homo sapiens, UniProt P08173)

>  <Emax>
55 to 70%

$$$$
>  <COMPOUND>
CN(C)C(=O)N1CC2(CCN(C3CC4CCC(C3)N4C(=O)O[C@H]3CCOC3)CC2)c2cc(F)ccc21 (some centres unmarked) [compound 130]

>  <TESTED_ON>
M4 muscarinic receptor (Homo sapiens, UniProt P08173)

>  <Emax>
< 55%

$$$$

Below: the item to evaluate.
# input compound: CCNC(=O)N1C2CCC1CC(N1CCC3(CC1)COc1ccc(F)cc13)C2 (centres unmarked) [compound 219] ; wanted: its Emax
< 55%

###

- TESTED_ON: M1 muscarinic receptor (Homo sapiens, UniProt P11229)
- Construct: expressed in transfected cells; host or cells: CHO cells (M1-CHO, under zeocin and G418 selection)
- Sequence (P11229 whole entry): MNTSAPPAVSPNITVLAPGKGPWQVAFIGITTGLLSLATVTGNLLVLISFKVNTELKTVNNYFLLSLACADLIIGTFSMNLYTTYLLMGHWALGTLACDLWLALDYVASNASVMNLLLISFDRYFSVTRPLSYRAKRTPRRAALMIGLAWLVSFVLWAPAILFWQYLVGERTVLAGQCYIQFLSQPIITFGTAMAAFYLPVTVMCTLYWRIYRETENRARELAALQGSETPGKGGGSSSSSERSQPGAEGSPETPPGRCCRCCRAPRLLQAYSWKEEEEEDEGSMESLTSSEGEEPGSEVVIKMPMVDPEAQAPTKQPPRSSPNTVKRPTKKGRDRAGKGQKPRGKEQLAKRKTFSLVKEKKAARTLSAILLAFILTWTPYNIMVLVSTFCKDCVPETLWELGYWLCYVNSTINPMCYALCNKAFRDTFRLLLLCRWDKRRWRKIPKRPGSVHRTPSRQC
- TEST_SUMMARY: Functional mobilization of intracellular calcium (FLIPR, Fluo-3), M1-CHO cells
- Type: cell-based
- TEST_CONDITIONS: compound nos. 455-509; 100% efficacy is the maximum response obtained with the Carbachol control; read-out: M1 Efficacy
Hi there, I'd appreciate the recorded Emax for every entry that follows.

>  <COMPOUND>
Cc1nsc(N2CC3(CCN(C4CC5CCC(C4)N5c4nc(C)ns4)CC3)c3ccccc32)n1 (stereo not drawn) [compound 477]

>  <Emax>
> 100%

$$$$
>  <COMPOUND>
CCc1nsc(N2CCC(N3CCC4(CC3)CN(C(C)=O)c3ccccc34)CC2)n1 [compound 498]

>  <Emax>
> 100%

$$$$

// for each compound below, give its Emax
1. Cc1ccc(N2CCC(N3CCC4(CC3)CN(C(=O)N(C)C)c3ccc(F)cc34)CC2)nn1 [compound 462]
2. Cc1nsc(N2CCC(N3CCC4(CC3)CN(C(=O)N(C)C)c3ccccc34)CC2)n1 [compound 458]
3. CN(C)C(=O)N1CC2(CCN(C3CCN(c4cncc(Cl)n4)CC3)CC2)c2ccccc21 [compound 469]
4. CC(=O)N1CC2(CCN(C3CCN(c4cncc(C)n4)CC3)CC2)c2ccccc21 [compound 470]
5. CCc1nsc(N2CCC(N3CCC4(CC3)CN(C(=O)N(C)C)c3ccccc34)CC2)n1 [compound 476]

1. 25 to 100%
2. > 100%
3. > 100%
4. > 100%
5. > 100%

List the reported Emax of each compound below.
1. CN(C)C(=O)N1CC2(CCN(C3CCN(c4nccs4)CC3)CC2)c2ccccc21 [compound 504]
2. CC(=O)N(C)[C@H]1CC2(CCN(C3CCN(c4nc(C)ns4)CC3)CC2)c2ccccc21 [compound 479]
3. CC(=O)N1CCC2(CCN(C3CCN(c4nc(C)cs4)CC3)CC2)c2ccccc21 [compound 483]
4. Cc1csc(N2CCC(N3CCC4(CCN(C(=O)N(C)C)c5ccccc54)CC3)CC2)n1 [compound 508]

["25 to 100%", "> 100%", "25 to 100%", "25 to 100%"]

Hey, quick one: what's Emax for each of these?
1. Cc1cncc(N2CCC(N3CCC4(CC3)CN(C(=O)N(C)C)c3ccccc34)CC2)n1 [compound 478]
2. CC(=O)N1CC2(CCN(C3CCN(c4cnc(C)c(C)n4)CC3)CC2)c2ccccc21 [compound 471]
3. CN(C)C(=O)N1CC2(CCN(C3CCN(c4ncns4)CC3)CC2)c2ccccc21 [compound 506]
4. Cc1ncc(N2CCC(N3CCC4(CCN(C(=O)N(C)C)c5ccccc54)CC3)CC2)nc1C [compound 461]
5. CC(=O)N1CC2(CCN(C3CCN(c4nccs4)CC3)CC2)c2ccccc21 [compound 491]
6. Cc1cnc(N2CCC(N3CCC4(CC3)CN(C(=O)N(C)C)c3ccccc34)CC2)cn1 [compound 468]
7. CN(C)C(=O)N1CC2(CCN(C3CCN(c4nccnc4C#N)CC3)CC2)c2cc(F)ccc21 [compound 480]

1. > 100%
2. > 100%
3. > 100%
4. > 100%
5. < 25%
6. > 100%
7. 25 to 100%

Hey, just so you know, these numbers are from patent US7858635B2.
